# Tested on: RXRa homodimer (NR concentration 180 nM)
# TEST METHOD NOTES: PBM binding z-score (relative to random genomic background probes); higher = stronger binding; sequences stand for … in GC…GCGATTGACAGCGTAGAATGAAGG
OBSERVED PROPERTY: PBM binding z-score

# SEQUENCE TEXT, PBM binding z-score
data = [
    ("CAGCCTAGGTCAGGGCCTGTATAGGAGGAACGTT", 1.46),
    ("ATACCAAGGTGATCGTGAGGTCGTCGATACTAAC", 1.56),
    ("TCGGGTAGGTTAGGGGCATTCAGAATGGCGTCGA", 1.02),
    ("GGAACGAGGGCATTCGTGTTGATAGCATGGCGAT", 0.575),
    ("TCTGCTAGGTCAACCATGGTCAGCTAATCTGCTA", 3.24),
]

Name the reported PBM binding z-score value associated with the sequence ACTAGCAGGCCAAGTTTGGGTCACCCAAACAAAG 1.45

Another sequence to check: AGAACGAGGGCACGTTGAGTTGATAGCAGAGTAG 1.36

Can you handle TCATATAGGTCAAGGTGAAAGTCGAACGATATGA next? 5.05

Also, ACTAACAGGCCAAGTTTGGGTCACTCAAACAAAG please. 0.882
